molecular target: human recombinant adrenergic α1D receptor (Homo sapiens); construct: expressed in transfected cells; host or cells: HEK-293; assay: Radioligand binding, adrenergic α1D ([3H]Prazosin); details: 0.1 μM compound; read-out: Percentage inhibition of ligand binding, Adrenergic α1D
Sequence (P25100 whole entry): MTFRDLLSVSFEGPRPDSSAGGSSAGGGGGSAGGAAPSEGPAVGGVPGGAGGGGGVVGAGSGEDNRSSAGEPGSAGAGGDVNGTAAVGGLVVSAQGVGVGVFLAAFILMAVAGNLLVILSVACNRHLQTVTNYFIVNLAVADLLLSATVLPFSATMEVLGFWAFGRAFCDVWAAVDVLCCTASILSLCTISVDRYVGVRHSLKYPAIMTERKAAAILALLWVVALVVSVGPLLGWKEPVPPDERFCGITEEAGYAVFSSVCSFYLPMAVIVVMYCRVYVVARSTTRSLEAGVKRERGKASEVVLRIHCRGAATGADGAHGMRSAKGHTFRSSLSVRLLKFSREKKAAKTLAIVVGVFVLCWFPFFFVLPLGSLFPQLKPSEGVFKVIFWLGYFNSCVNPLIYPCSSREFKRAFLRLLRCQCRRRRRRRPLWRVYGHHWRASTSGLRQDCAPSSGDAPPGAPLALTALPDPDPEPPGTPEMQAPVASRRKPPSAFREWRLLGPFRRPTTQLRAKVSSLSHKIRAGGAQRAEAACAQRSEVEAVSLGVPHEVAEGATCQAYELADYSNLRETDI
Consider the reported inhibition at 0.1 µM of an entry and match it to a band in bin 1: < 30%; bin 2: ≥ 30% and < 60%; bin 3: ≥ 60%

Answered examples (2):
>  <compound>
Cc1ccc2c(c1)c1c(n2C2=C(c3ccc(F)cc3)CCC2)CCN(C)C1

>  <label>
bin 2

$$$$
>  <compound>
COc1ccc(/C(C)=C/n2c3c(c4cc(Cl)ccc42)CCN(C)CC3)cc1

>  <label>
bin 3

$$$$

Query: Dear colleague, I would appreciate it if you could identify the bin for Cc1ccc(CCn2c3c(c4c(Cl)ccc(Cl)c42)CN(C)CC3)cn1 and reply at your convenience.
Response: bin 1

Query: Dear colleague, I would appreciate it if you could identify the bin for Cc1ccc(C#Cn2c3c(c4cc(C)ccc42)CN(C)CC3)nc1 and reply at your convenience.
Response: bin 3

Query: Dear colleague, I would appreciate it if you could identify the bin for Cc1ccc2c(c1)c1c(n2CC(C)(C)c2ccncc2)CCN(C)C1 and reply at your convenience.
Response: bin 1

Query: Dear colleague, I would appreciate it if you could identify the bin for CN1CCc2c(n(CC(O)c3ccccc3F)c3ccc(Cl)cc23)C1 (centres unmarked) and reply at your convenience.
Response: bin 1

Query: Dear colleague, I would appreciate it if you could identify the bin for C/C(=C\n1c2c(c3cc(Cl)ccc31)CN(C)CC2)c1ccc(S(C)(=O)=O)cc1 and reply at your convenience.
Response: bin 2

These measurements were taken from patent US8791132B2.
